MEASURED_ON: GST-Nv-NF-kB (Cys allele) (Nematostella vectensis, UniProt E5G601 2-411)
Sequence: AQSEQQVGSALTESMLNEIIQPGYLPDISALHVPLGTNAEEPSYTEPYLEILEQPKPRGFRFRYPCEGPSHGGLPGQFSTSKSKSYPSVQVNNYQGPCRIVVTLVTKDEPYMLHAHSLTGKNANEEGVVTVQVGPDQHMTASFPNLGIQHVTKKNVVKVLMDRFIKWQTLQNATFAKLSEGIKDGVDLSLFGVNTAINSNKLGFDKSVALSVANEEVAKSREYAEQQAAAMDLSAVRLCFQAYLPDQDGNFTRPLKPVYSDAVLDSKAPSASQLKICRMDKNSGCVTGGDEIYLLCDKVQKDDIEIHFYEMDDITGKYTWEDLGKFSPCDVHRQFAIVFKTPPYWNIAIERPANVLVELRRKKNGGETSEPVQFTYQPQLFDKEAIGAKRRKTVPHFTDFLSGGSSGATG
PROTOCOL_NOTES: protein-binding microarray (PBM); PBM: ~300 nM protein, 6 mM HEPES pH 7.8, 80 mM KCl, 0.5 mM EDTA, 0.5 mM EGTA, 6% glycerol, 35 ng/ul poly-dIdC, 1% milk, 1 h, room temperature; Ap Aiptasia and Nv Nematostella (sea anemones) / Co Capsaspora / Aq Amphimedon (sponge) / Dm Drosophila / Hu human; RHD is the Rel homology domain; high values mean tight binding
DETAILS: dsDNA, one strand shown
binding signal less than 6 z-score is true; binding signal greater than or equal to 6 z-score is false.

                             residue_string  assigned_category
0  CCGATTAACATCACCGTTTTCCCTGATGTTAATCGGGTCTTGATTCGCTTGACGCTGCTG               true
1  CCGATTAACATCAGGGGTTACACTGATGTTAATCGGGTCTTGATTCGCTTGACGCTGCTG               true
2  CCGATTAACATCAGAGCTCCCCCTGATGTTAATCGGGTCTTGATTCGCTTGACGCTGCTG               true
3  CCGATTAACATCAGATTCTCCCCTGATGTTAATCGGGTCTTGATTCGCTTGACGCTGCTG               true
4  CCGATTAACATCAAATTGGGAAATGATGTTAATCGGGTCTTGATTCGCTTGACGCTGCTG               true

query: Problem: For the sequence "CCGATTAACATCAGGAGACTCCCTGATGTTAATCGGGTCTTGATTCGCTTGACGCTGCTG" , is binding signal under 6 z-score?
result: true

query: Problem: For the sequence "CCGATTAACATCAAAGGACCCCCTGATGTTAATCGGGTCTTGATTCGCTTGACGCTGCTG" , is binding signal under 6 z-score?
result: true

query: Problem: For the sequence "CCGATTAACATCAGGACTCTCCCTGATGTTAATCGGGTCTTGATTCGCTTGACGCTGCTG" , is binding signal under 6 z-score?
result: true

All figures here come from paper PMC5700166.
